Target: Gal(b1-4)Glc6S
Experiment: glycan array binding signal (z-score within array); higher = stronger binding
Settings: glycan notation: IUPAC condensed, linker removed
Many of the other results were omitted from the sample, so the strongest signals are more common in it than they were.
If the reported glycan array binding signal (z-score) equals or exceeds -0.1, assign MET. If not, assign NOT MET.

See these solved cases before continuing.
binder	category label
RNase 1 (Bos taurus), P61823 (protein) MALKSLVLLSLLVLVLLLVRVQPSLGKETAAAKFERQHMDSSTSAASSSNYCNQMMKSRNLTKDRCKPVNTFVHESLADVQAVCSQKNVACKNGQTNCYQSYSTMSITDCRETGSSKYPNCAYKTTQANKHIIVACEGNPYVPVHFDASV	NOT MET
Ficolin A (Rattus norvegicus), Q9WTS8 (protein) MWWPMLWAFPVLLCLCSSQALGQESGACPDVKIVGLGAQDKVAVIQSCPSFPGPPGPKGEPGSPAGRGERGLQGSPGKMGPPGSKGEPGTMGPPGVKGEKGERGTASPLGQKELGDALCRRGPRSCKDLLTRGIFLTGWYTIYLPDCRPLTVLCDMDVDGGGWTVFQRRVDGSINFYRDWDSYKRGFGNLGTEFWLGNDYLHLLTANGNQELRVDLREFQGQTSFAKYSSFQVSGEQEKYKLTLGQFLEGTAGDSLTKHNNMAFSTHDQDNDTNGGKNCAALFHGAWWYHDCHQSNLNGRYLPGSHESYADGINWLSGRGHRYSYKVAEMKIRAS	MET
DCL-1 (Homo sapiens), Q8IX05 (protein) MLRAALPALLLPLLGLAAAAVADCPSSTWIQFQDSCYIFLQEAIKVESIEDVRNQCTDHGADMISIHNEEENAFILDTLKKQWKGPDDILLGMFYDTDDASFKWFDNSNMTFDKWTDQDDDEDLVDTCAFLHIKTGEWKKGNCEVSSVEGTLCKTAIPYKRKYLSDNHILISALVIASTVILTVLGAIIWFLYKKHSDSRFTTVFSTAPQSPYNEDCVLVVGEENEYPVQFD	MET

glycan array binding signal (z-score) >= -0.1 for DCIR (Homo sapiens), Q9UMR7 (protein) MTSEITYAEVRFKNEFKSSGINTASSAASKERTAPHKSNTGFPKLLCASLLIFFLLLAISFFIAFVIFFQKYSQLLEKKTTKELVHTTLECVKKNMPVEETAWSCCPKNWKSFSSNCYFISTESASWQDSEKDCARMEAHLLVINTQEEQDFIFQNLQEESAYFVGLSDPEGQRHWQWVDQTPYNESSTFWHPREPSDPNERCVVLNFRKSPKRWGWNDVNCLGPQRSVCEMMKIHL ?
MET

glycan array binding signal (z-score) >= -0.1 for Crocus Lectin (Crocus vernus), Q9FVA1 (protein) MAKSLVLSSLLLALLLAAPLASLADNNVLLTGDVLHTDNQLSFESAAFVMQGDCNLVLYNEAGGFQSNTHGRGVGCTLRLNNFGQLEIHSANSNTPVWVSLRNGIPVRGDYAAVLGPDQHVTIYGPAIWSTPAPNRHERGATVSNIPRVRNVLFSSQVMSDNAQLATRDYSLVMRDDCNLALTKGSKTNIVWESGTSGRGQHCFMRLGHTGLIEISDDRLNTVWRSNTVGQEGDYVLILQINGQAVVYGPAVWSTASPARGGASAAL ?
NOT MET
